Recorded %Inh values for a group of compounds are listed next.
Test system: MYLK2;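 note: KINOMEscan kinase panel screen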
Condition set: concentration: 1 μM,replicates: in singlicate; n = 1
Quantity: %Inh (%)

{"Chemical smiles": "COC(=O)Nc1nc2cc(Oc3ccc(NC(=O)Nc4cc(C(F)(F)F)ccc4Cl)cc3)ccc2[nH]1.Cl", "Study system": "MYLK2", "Result": 6}
{"Chemical smiles": "Cc1ccc(Nc2ccnc(Nc3ccc4c(c3)CS(=O)(=O)C4)n2)cc1O.Cl", "Study system": "MYLK2", "Result": 32}
{"Chemical smiles": "O=C(Nc1ccc(Oc2ccc3nc(NC(=O)C4CC4)cn3n2)c(F)c1)c1cccn(-c2ccccc2)c1=O", "Study system": "MYLK2", "Result": 0}
{"Chemical smiles": "Cl.c1ccc(Oc2ccc(Nc3ccnc4cc(-c5ccc(CN6CCNCC6)o5)ccc34)cc2)nc1", "Study system": "MYLK2", "Result": 0}

Value source: paper PMC5540273
